Source: patent US12723037B2

# key: entry, value: MRT
assay: Pharmacokinetic results of the drugs in SD rats; assay type: in vivo; details: rat, in vivo, iv (2 mg/kg)
Reply with just the number (in h).

INSERT INTO results (compound, property_measured, readout_number) VALUES
  ('NC(=O)/C(=C/n1cnc(-c2cc(C(F)(F)F)cc(C(F)(F)F)c2)n1)c1cncnc1 [KPT-8602, reference compound]', 'MRT', 2.48);

Alright, here's another compound for you.
Please fill in: MRT reported for CONC(=O)/C(=C/n1cnc(-c2cc(C(F)(F)F)cc(C(F)(F)F)c2)n1)c1cncnc1 = 2.49

---

# key: entry, value: MRT
assay: Pharmacokinetic results of the drugs in SD rats; type: in vivo; settings: rat, in vivo, po (10 mg/kg)
Reply with just the number (in h).

INSERT INTO results (compound, property_measured, units_text, readout_number) VALUES
  ('NC(=O)/C(=C/n1cnc(-c2cc(C(F)(F)F)cc(C(F)(F)F)c2)n1)c1cncnc1 [KPT-8602, reference compound]', 'MRT', 'h', 3.85);

Alright, here's another compound for you.
Please fill in: MRT reported for CONC(=O)/C(=C/n1cnc(-c2cc(C(F)(F)F)cc(C(F)(F)F)c2)n1)c1cncnc1 [Compound I] = 7.65
